Entry source: patent US12139487B2

# studySystem: BRG-1 (Homo sapiens, UniProt P51532)
# Construct: made in house; host or cells: High Five insect cells
# Sequence (P51532 whole entry): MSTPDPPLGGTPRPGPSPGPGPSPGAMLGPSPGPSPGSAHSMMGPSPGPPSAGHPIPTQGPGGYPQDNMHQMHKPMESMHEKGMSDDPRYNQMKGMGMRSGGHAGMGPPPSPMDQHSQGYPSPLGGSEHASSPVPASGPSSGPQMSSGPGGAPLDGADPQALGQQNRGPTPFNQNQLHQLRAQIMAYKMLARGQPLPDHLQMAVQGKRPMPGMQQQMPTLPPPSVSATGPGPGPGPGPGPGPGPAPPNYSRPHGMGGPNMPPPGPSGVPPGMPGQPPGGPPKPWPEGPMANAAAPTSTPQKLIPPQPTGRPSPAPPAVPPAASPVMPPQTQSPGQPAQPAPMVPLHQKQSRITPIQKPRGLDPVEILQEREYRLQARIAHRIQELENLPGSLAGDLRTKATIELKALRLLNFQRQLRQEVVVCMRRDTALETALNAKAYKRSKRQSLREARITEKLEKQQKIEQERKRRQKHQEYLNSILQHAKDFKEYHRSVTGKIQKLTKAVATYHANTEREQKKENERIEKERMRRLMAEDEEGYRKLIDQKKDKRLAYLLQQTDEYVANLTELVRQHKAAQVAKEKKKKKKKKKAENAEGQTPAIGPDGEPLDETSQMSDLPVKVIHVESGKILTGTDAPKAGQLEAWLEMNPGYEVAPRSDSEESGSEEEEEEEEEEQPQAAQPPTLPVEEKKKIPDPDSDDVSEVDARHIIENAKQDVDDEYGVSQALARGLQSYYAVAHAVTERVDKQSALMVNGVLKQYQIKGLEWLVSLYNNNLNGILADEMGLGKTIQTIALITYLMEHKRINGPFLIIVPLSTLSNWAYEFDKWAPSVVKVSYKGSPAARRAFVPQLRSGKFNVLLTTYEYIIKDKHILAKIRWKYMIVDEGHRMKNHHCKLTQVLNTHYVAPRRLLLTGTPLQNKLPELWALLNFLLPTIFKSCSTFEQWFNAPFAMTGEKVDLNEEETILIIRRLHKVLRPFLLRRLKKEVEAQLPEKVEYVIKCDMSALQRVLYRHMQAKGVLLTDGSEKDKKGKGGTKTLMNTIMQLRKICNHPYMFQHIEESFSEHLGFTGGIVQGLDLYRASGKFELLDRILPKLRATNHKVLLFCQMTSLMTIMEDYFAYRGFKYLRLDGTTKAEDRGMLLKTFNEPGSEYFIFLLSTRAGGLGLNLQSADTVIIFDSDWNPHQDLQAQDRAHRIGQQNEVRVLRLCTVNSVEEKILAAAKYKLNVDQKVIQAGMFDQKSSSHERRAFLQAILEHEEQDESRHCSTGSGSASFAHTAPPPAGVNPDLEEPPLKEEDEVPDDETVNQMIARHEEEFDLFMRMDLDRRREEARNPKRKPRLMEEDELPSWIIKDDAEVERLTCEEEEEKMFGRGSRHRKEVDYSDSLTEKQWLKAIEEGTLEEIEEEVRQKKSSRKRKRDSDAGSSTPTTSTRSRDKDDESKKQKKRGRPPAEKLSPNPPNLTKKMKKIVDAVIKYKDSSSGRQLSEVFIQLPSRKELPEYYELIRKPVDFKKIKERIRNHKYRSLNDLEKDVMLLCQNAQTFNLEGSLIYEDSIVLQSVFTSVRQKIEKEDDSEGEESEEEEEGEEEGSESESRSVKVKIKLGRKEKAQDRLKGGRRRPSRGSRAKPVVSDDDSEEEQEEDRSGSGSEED
# protocolText: ATPase catalytic activity assay (ADP-Glo), BRG-1
# Format: biochemical
# measurementSetup: Table 10, read-out: BRG1 IC50
# Experimental: The ATPase catalytic activity of BRM or BRG-1 was measured by an in vitro biochemical assay using ADP-Glo™ (Promega, V9102). The ADP-Glo™ kinase assay is performed in two steps once the reaction is complete. The first step is to deplete any unconsumed ATP in the reaction. The second step is to convert the reaction product ADP to ATP, which will be utilized by the luciferase to generate luminesce and be detected by a luminescence reader, such as Envision. […]

| structureSmiles | IC50 |
| --- | --- |
| O=C(NCc1cc2nc(N3CCCc4c3ccnc4OC3CC3)ccc2cn1)c1cc(F)c2c(c1)S(=O)(=O)[C@@H](F)CCO2 | 45.1 nM |
| O=C(NCc1cc2nc(N3CCOc4ccc([C@H]5C[C@H]5F)nc43)ccc2cn1)c1cc(F)c2c(c1)S(=O)(=O)[C@@H](F)COC2 | 88.9 nM |
| O=C(NCc1cc2nc(-c3cccc(N4CCC4)n3)ccc2cn1)c1cc(F)c2c(c1)S(=O)(=O)[C@@H](F)COC2 | 79.1 nM |
| O=C(NCc1cc2nc(N3CCOc4cc(C56CC(C5)C6)cnc43)ccc2cn1)c1cc(F)c2c(c1)S(=O)(=O)[C@@H](F)COC2 | 72.9 nM |
| O=C(NCc1cc2nc(N3CCOc4cc(N5CCC5)cnc43)ccc2cn1)c1cc(F)c2c(c1)S(=O)(=O)[C@@H](F)COC2 | 34.1 nM |
| COc1nc([C@@H](F)C(F)F)ccc1-c1ccc2cnc(CNC(=O)c3cc(F)c4c(c3)S(=O)(=O)[C@@H](F)CCO4)cc2n1 | 143 nM |
| Cc1cc(C(=O)NCc2cc3nc(N4CCOc5cc(N6CC[C@H]6C)cnc54)ccc3cn2)cc2c1OCC[C@H](F)S2(=O)=O | 76 nM |
| CC(C)c1cnc2c(c1)OCCN2c1ccc2cnc(CNC(=O)c3cc(F)c4c(c3)S(=O)(=O)[C@@H](F)CCO4)cc2n1 | 96.8 nM |
| O=C(NCc1cc2nc(N3CCOc4ccc(N5CC(F)(F)C5)nc43)ccc2cn1)c1cc(F)c2c(c1)S(=O)(=O)[C@@H](F)CCO2 | 190 nM |
| O=C(NCc1cc2nc(N3CCCc4c(OC5CC5)ccnc43)ccc2cn1)c1cc(F)c2c(c1)S(=O)(=O)[C@@H](F)CCO2 | 24 nM |
| O=C(NCc1cc2nc(N3CCOc4ccc([C@@H]5C[C@H]5C(F)F)nc43)ccc2cn1)c1cc(F)c2c(c1)S(=O)(=O)[C@@H](F)CCO2 | 50.6 nM |
| O=C(NCc1cc2nc(N3CCCc4cc(C5COC5)cnc43)ccc2cn1)c1cc(F)c2c(c1)S(=O)(=O)[C@@H](F)CCO2 | 168 nM |
| O=C(NCc1cc2nc(-c3cccc(C4CC4)n3)ccc2cn1)c1cc(F)c2c(c1)S(=O)(=O)[C@@H](F)COC2 | 118 nM |
| O=C(NCc1cc2nc(N3CCOc4cc(C(F)F)cnc43)ccc2cn1)c1cc(F)c2c(c1)S(=O)(=O)[C@@H](F)COC2 | 36.7 nM |
| O=C(NCc1cc2nc(-c3cccc(OC(F)(F)F)n3)ccc2cn1)c1cc(F)c2c(c1)S(=O)(=O)[C@@H](F)COC2 | 161 nM |
| CO[C@H]1C[C@H]1c1cnc2c(c1)OCCN2c1ccc2cnc(CNC(=O)c3cc(F)c4c(c3)S(=O)(=O)[C@@H](F)CCO4)cc2n1 | 25.8 nM |
| C[C@@H]1C[C@@H]1c1cnc2c(c1)OCCN2c1ccc2cnc(CNC(=O)c3cc(F)c4c(c3)S(=O)(=O)[C@@H](F)CCO4)cc2n1 | 66.5 nM |
| CO[C@H]1CN(c2cccc(-c3ccc4cnc(CNC(=O)c5cc(F)c6c(c5)S(=O)(=O)[C@@H](F)CCO6)cc4n3)n2)C[C@@H]1F | 65.7 nM |
| O=C(NCc1cc2nc(N3CCOc4cc(OC(F)F)cnc43)ccc2cn1)c1cc(F)c2c(c1)S(=O)(=O)[C@@H](F)CCO2 | 104 nM |
| CCCc1ccnc2c1OCCN2c1ccc2cnc(CNC(=O)c3cc(F)c4c(c3)S(=O)(=O)[C@@H](F)CCO4)cc2n1 | 69.2 nM |
| O=C(NCc1cc2nc(-c3ccc(OC(F)F)c(C4CC4)n3)ccc2cn1)c1cc(F)c2c(c1)S(=O)(=O)[C@@H](F)CCO2 | 132 nM |
| O=C(NCc1cc2nc(-c3ccnc(C45CC(C4)C5)n3)ccc2cn1)c1cc(F)c2c(c1)S(=O)(=O)[C@@H](F)COC2 | 187 nM |
| O=C(NCc1cc2nc(-c3cccc(OC(F)F)c3)ccc2cn1)c1cc(F)c2c(c1)S(=O)(=O)[C@@H](F)COC2 | 266 nM |
| O=C(NCc1cc2nc(N3CCOc4ccc([C@H]5C[C@@H]5F)nc43)ccc2cn1)c1cc(F)c2c(c1)S(=O)(=O)[C@@H](F)CCO2 | 172 nM |
| O=C(NCc1cc2cc(-c3cccc(C(F)F)n3)ccc2cn1)c1cc(F)c2c(c1)S(=O)(=O)[C@@H](F)COC2 | 140 nM |
